Values from paper PMC10720262

# measured.target: recombinant full-length PfCSP (Plasmodium falciparum circumsporozoite protein, strain NF54) (Plasmodium falciparum NF54, UniProt P19597)
# Sequence (P19597 20-375): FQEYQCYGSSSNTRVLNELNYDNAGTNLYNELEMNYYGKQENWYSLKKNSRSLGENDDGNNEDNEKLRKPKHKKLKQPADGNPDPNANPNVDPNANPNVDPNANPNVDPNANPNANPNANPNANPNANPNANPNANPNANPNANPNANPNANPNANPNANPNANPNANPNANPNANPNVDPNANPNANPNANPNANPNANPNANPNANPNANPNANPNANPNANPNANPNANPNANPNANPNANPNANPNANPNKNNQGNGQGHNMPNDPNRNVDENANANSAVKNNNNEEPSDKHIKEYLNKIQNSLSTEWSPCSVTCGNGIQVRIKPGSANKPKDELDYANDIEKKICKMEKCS
readout.kind: binding result

INSERT INTO measurements (binder, recorded_value) VALUES
  ('CL-513041 (antibody, V domains shown) VH: QEHLVESGGGVVQPGRSLRLSCAASGFTFSNSGMHWVRQAPGKGLEWVAVIWYDGSNKFYADSVRGRFTISRDNSNNTLYLQMNSLRAEDTALYYCARDRLFSGSWNWFDPWGQGTLVTVSS VL: EIVLTQSPATLSLSPGERATLSCRASQSVSTYLAWYQQKPGQAPRLLIYDASNRATGIPARFSGSGSGTDFTLTISSLEPEDFAVYYCQQRSNWFTFGGGTKVEIK', 'binds'),
  ('CL-445457 (antibody, V domains shown) VH: QVQLVESGGAVVQPGTSLRLSCAASGFTFSNYGIHWVRQAPGKGLQWVALIWYNGNNKFYADSVQGRFTISRDNSKNILYLQINSLSAEDTAVYYCARAFYSDSGNYMDYWGQGALVTVSS VL: DIQMTQSPSSVSASVGDRVTITCRARQDISSRLAWYQQKPGKAPKILIYGASSLQSGVPSRFSASGSGTDFTLTISSLQPEDVASYFCQQANSFPWTFGQGTKVEIK', 'binds');
